FYI, the data here is from patent US20110097323A1.

# Tested Target: CD16A F158 (human, UniProt P08637 17-208, limits assumed)
# Sequence (P08637 17-208 limits assumed): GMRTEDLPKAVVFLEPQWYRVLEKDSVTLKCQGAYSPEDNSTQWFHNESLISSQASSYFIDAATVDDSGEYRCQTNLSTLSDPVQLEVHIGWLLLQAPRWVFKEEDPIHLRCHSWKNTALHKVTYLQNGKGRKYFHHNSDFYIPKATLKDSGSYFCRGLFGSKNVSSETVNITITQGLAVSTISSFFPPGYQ
# Procedure Summary: Table 3; relative to wild-type Fc; method not stated
Entries annotated with measured binding relative to wild-type Fc (fold)
Please reply with the value in numeric form only.

Binder	Value Type	Observed
Fc variant F243L D270E P396L Q419H (other, UniProt P01857-1 99-330, looked up, name in EU numbering, domain: Fc region; positions are EU index) EPKSCDKTHTCPPCPAPELLGGPSVFLLPPKPKDTLMISRTPEVTCVVVDVSHEEPEVKFNWYVDGVEVHNAKTKPREEQYNSTYRVVSVLTVLHQDWLNGKEYKCKVSNKALPAPIEKTISKAKGQPREPQVYTLPPSRDELTKNQVSLTCLVKGFYPSDIAVEWESNGQPENNYKTTPLVLDSDGSFFLYSKLTVDKSRWQHGNVFSCSVMHEALHNHYTQKSLSLSPGK	binding relative to wild-type Fc (fold)	1.15
Fc variant F243L R292P V305I P396L (other, UniProt P01857-1 99-330, looked up, name in EU numbering, domain: Fc region; positions are EU index) EPKSCDKTHTCPPCPAPELLGGPSVFLLPPKPKDTLMISRTPEVTCVVVDVSHEDPEVKFNWYVDGVEVHNAKTKPPEEQYNSTYRVVSILTVLHQDWLNGKEYKCKVSNKALPAPIEKTISKAKGQPREPQVYTLPPSRDELTKNQVSLTCLVKGFYPSDIAVEWESNGQPENNYKTTPLVLDSDGSFFLYSKLTVDKSRWQQGNVFSCSVMHEALHNHYTQKSLSLSPGK	binding relative to wild-type Fc (fold)	2.53

Consider the binder Fc variant R292P V305I P396L (other, UniProt P01857-1 99-330, looked up, name in EU numbering, domain: Fc region; positions are EU index) EPKSCDKTHTCPPCPAPELLGGPSVFLFPPKPKDTLMISRTPEVTCVVVDVSHEDPEVKFNWYVDGVEVHNAKTKPPEEQYNSTYRVVSILTVLHQDWLNGKEYKCKVSNKALPAPIEKTISKAKGQPREPQVYTLPPSRDELTKNQVSLTCLVKGFYPSDIAVEWESNGQPENNYKTTPLVLDSDGSFFLYSKLTVDKSRWQQGNVFSCSVMHEALHNHYTQKSLSLSPGK and give its measured binding relative to wild-type Fc (fold).
1.9
